assay_protocol: Single dose oral pharmacokinetic studies in rabbits
Format: in vivo, male New Zealand White rabbits
run_conditions: male, New Zealand White, rabbit, plasma, po, 90 mg/kg, non-coated capsule, 90 mg/kg b.w. oral single dose, rabbit plasma (Examples 2, 3, 4)
Method: The studies detailed below (and referred to as Examples 2 to 8) were conducted to provide comparative single dose oral pharmacokinetics data for Compound 1, as well as sodium and potassium salts of that compound, using non-coated and enteric-coated capsules in male New Zealand White rabbits. […] Concentrations of the analyte of Compound 1 in New Zealand white rabbits was determined using an API 3200 Q-trap LC-MS/MS system. […]
value_kind: half-life (h)

compound: O=C(Nc1nc(=O)n(Cc2ccc(Cl)cc2)s1)c1ccc(Cl)cc1.[K] [Compound 3]
val: 71.6

(I) O=C(Nc1nc(=O)n(Cc2ccc(Cl)cc2)s1)c1ccc(Cl)cc1 [Compound 1]
(II) O=C(Nc1nc(=O)n(Cc2ccc(Cl)cc2)s1)c1ccc(Cl)cc1.[Na] [Compound 2]
IN: Could you point out whether the larger half-life belongs to I or to II ? Choose, then provide that item's label.
OUT: II

====

assay_protocol: Single dose oral pharmacokinetic studies in rabbits
Format: in vivo, male New Zealand White rabbits
run_conditions: male, New Zealand White, rabbit, plasma, po, 53 mg/kg, enteric coated capsule with MgO, 53 mg/kg b.w. (equivalent to 50 mg/kg Compound 1) oral single dose, rabbit plasma (Example 11)
value_kind: Cmax (µg/mL)
# value in µg/mL; strip the unit string

IN: Form field: reported Cmax of O=C(Nc1nc(=O)n(Cc2ccc(Cl)cc2)s1)c1ccc(Cl)cc1.[Na]
OUT: 153

====

assay_protocol: Single dose oral pharmacokinetic studies in rabbits
Assay type: in vivo, male New Zealand White rabbits
run_conditions: male, New Zealand White, rabbit, plasma, po, 90 mg/kg, 0.25 h; standard suspension, 90 mg/kg b.w. oral
value_kind: concentration at 0.25 h (ng/mL)
Only the number, expressed in ng/mL, is required.

IN: Tell me the measured concentration at 0.25 h of O=C(Nc1nc(=O)n(Cc2ccc(Cl)cc2)s1)c1ccc(Cl)cc1 , please.
OUT: 4420

====

assay_protocol: Single dose oral pharmacokinetic studies in rabbits
Type: in vivo, male New Zealand White rabbits
run_conditions: male, New Zealand White, rabbit, plasma, po, 90 mg/kg, 48.00 h; non-coated capsule, 90 mg/kg b.w. oral
Method: The studies detailed below (and referred to as Examples 2 to 8) were conducted to provide comparative single dose oral pharmacokinetics data for Compound 1, as well as sodium and potassium salts of that compound, using non-coated and enteric-coated capsules in male New Zealand White rabbits. […] Concentrations of the analyte of Compound 1 in New Zealand white rabbits was determined using an API 3200 Q-trap LC-MS/MS system. […]
value_kind: concentration at 48 h (µg/mL)
Note: unit µg/mL is implicit; provide only the numeric part.

IN: Quick one: concentration at 48 h of O=C(Nc1nc(=O)n(Cc2ccc(Cl)cc2)s1)c1ccc(Cl)cc1 ?
OUT: 54.8

====

assay_protocol: Single dose oral pharmacokinetic studies in rabbits
Format: in vivo, male New Zealand White rabbits
run_conditions: male, New Zealand White, rabbit, plasma, po, 90 mg/kg, non-coated capsule, 90 mg/kg b.w. oral single dose, rabbit plasma (Examples 2, 3, 4)
value_kind: Cmax (µg/mL)

molecule: O=C(Nc1nc(=O)n(Cc2ccc(Cl)cc2)s1)c1ccc(Cl)cc1.[K]
Cmax [µg/mL]: 81.9

(1) O=C(Nc1nc(=O)n(Cc2ccc(Cl)cc2)s1)c1ccc(Cl)cc1
(2) O=C(Nc1nc(=O)n(Cc2ccc(Cl)cc2)s1)c1ccc(Cl)cc1.[Na]
IN: Smaller Cmax value? Options are 1 and 2 Write down the label attached to your selection.
OUT: 1

====

assay_protocol: Single dose oral pharmacokinetic studies in rabbits
Format: in vivo, male New Zealand White rabbits
run_conditions: male, New Zealand White, rabbit, plasma, po, 90 mg/kg, 0.00 h; enteric coated capsule, 90 mg/kg b.w. oral
value_kind: concentration at 0 h (ng/mL)
# output: bare number, implied unit ng/mL

IN: For the molecule shown here, O=C(Nc1nc(=O)n(Cc2ccc(Cl)cc2)s1)c1ccc(Cl)cc1 , give the reported concentration at 0 h.
OUT: 0

====

assay_protocol: Single dose oral pharmacokinetic studies in rabbits
Format: in vivo
run_conditions: male, New Zealand White, rabbit, plasma, 25 mg/kg, enteric coated capsule with MgO, 25 mg/kg b.w. oral single dose, rabbit plasma (Example 9)
value_kind: AUC(0-t) (µg·h/mL)
Numbers only here, please. The scale is µg·h/mL.

IN: What AUC(0-t) value was documented for this molecule, O=C(Nc1nc(=O)n(Cc2ccc(Cl)cc2)s1)c1ccc(Cl)cc1.[Na] ?
OUT: 1700

====

assay_protocol: Single dose oral pharmacokinetic studies in rabbits
Type: in vivo, male New Zealand White rabbits
run_conditions: male, New Zealand White, rabbit, plasma, po, 90 mg/kg, 6.00 h; standard suspension, 90 mg/kg b.w. oral
value_kind: concentration at 6 h (µg/mL)
Supply the numeric figure in µg/mL, leaving out any unit text.

IN: Give its concentration at 6 h value. Item: O=C(Nc1nc(=O)n(Cc2ccc(Cl)cc2)s1)c1ccc(Cl)cc1
OUT: 139

====

assay_protocol: Single dose oral pharmacokinetic studies in rabbits
Assay type: in vivo, male New Zealand White rabbits
run_conditions: male, New Zealand White, rabbit, plasma, po, 90 mg/kg, non-coated capsule, 90 mg/kg b.w. oral single dose, rabbit plasma (Examples 2, 3, 4)
value_kind: MRT last (h)

molecule: O=C(Nc1nc(=O)n(Cc2ccc(Cl)cc2)s1)c1ccc(Cl)cc1
MRT last, h: 36.9
--
molecule: O=C(Nc1nc(=O)n(Cc2ccc(Cl)cc2)s1)c1ccc(Cl)cc1.[K]
MRT last, h: 39.6
--
molecule: O=C(Nc1nc(=O)n(Cc2ccc(Cl)cc2)s1)c1ccc(Cl)cc1.[Na]
MRT last, h: 38.8

====

assay_protocol: Single dose oral pharmacokinetic studies in rabbits
Format: in vivo, male New Zealand White rabbits
run_conditions: male, New Zealand White, rabbit, plasma, po, 90 mg/kg, 72.00 h; enteric coated capsule, 90 mg/kg b.w. oral
value_kind: concentration at 72 h (µg/mL)
Provide the reading as a plain figure in µg/mL.

IN: What measured concentration at 72 h goes with O=C(Nc1nc(=O)n(Cc2ccc(Cl)cc2)s1)c1ccc(Cl)cc1 ?
OUT: 52.3

====

assay_protocol: Single dose oral pharmacokinetic studies in rabbits
Format: in vivo, male New Zealand White rabbits
run_conditions: male, New Zealand White, rabbit, plasma, po, 90 mg/kg, standard suspension (2% w/v methylcellulose), 90 mg/kg b.w. oral single dose, rabbit plasma (Example 8)
value_kind: Tmax (h)
Note: unit h is implicit; provide only the numeric part.

IN: # Tmax lookup, item O=C(Nc1nc(=O)n(Cc2ccc(Cl)cc2)s1)c1ccc(Cl)cc1 [Compound 1]
OUT: 19

====

assay_protocol: Single dose oral pharmacokinetic studies in rabbits
Assay type: in vivo, male New Zealand White rabbits
run_conditions: male, New Zealand White, rabbit, plasma, po, 25 mg/kg, enteric coated capsule with mannitol, 25 mg/kg b.w. oral single dose, rabbit plasma (Example 10)
value_kind: Tmax (h)
# number only, unit h dropped from output

IN: Quick check: Tmax of O=C(Nc1nc(=O)n(Cc2ccc(Cl)cc2)s1)c1ccc(Cl)cc1.[Na] ?
OUT: 32

====

assay_protocol: Single dose oral pharmacokinetic studies in rabbits
Type: in vivo, male New Zealand White rabbits
run_conditions: male, New Zealand White, rabbit, plasma, po, 90 mg/kg, 0.16 h; enteric coated capsule, 90 mg/kg b.w. oral
value_kind: concentration at 0.16 h (ng/mL)
Give a bare numeral; the unit ng/mL is implied.

IN: For the molecule O=C(Nc1nc(=O)n(Cc2ccc(Cl)cc2)s1)c1ccc(Cl)cc1 , what concentration at 0.16 h is on record?
OUT: 0

====

assay_protocol: Single dose oral pharmacokinetic studies in rabbits
Type: in vivo, male New Zealand White rabbits
run_conditions: male, New Zealand White, rabbit, plasma, po, 90 mg/kg, 2.00 h; standard suspension, 90 mg/kg b.w. oral
value_kind: concentration at 2 h (ng/mL)
Quick reminder: number only, in ng/mL, skip the unit.

IN: Param item = O=C(Nc1nc(=O)n(Cc2ccc(Cl)cc2)s1)c1ccc(Cl)cc1 [Compound 1] ; retrieve measured concentration at 2 h.
OUT: 10100

====

assay_protocol: Single dose oral pharmacokinetic studies in rabbits
Type: in vivo, male New Zealand White rabbits
run_conditions: male, New Zealand White, rabbit, plasma, po, 90 mg/kg, non-coated capsule, 90 mg/kg b.w. oral single dose, rabbit plasma (Examples 2, 3, 4)
value_kind: Tmax (h)

molecule: O=C(Nc1nc(=O)n(Cc2ccc(Cl)cc2)s1)c1ccc(Cl)cc1
unit_text: h
Tmax: 32
--
molecule: O=C(Nc1nc(=O)n(Cc2ccc(Cl)cc2)s1)c1ccc(Cl)cc1.[Na]
unit_text: h
Tmax: 32
--
molecule: O=C(Nc1nc(=O)n(Cc2ccc(Cl)cc2)s1)c1ccc(Cl)cc1.[K]
unit_text: h
Tmax: 40
